// data source = PubChem BioAssay (NCI)

System: SN12C renal
Experiment: NCI tumour cell line growth inhibition, 48 h
Quantity measured: TGI (µM)
Write down the numeric answer in µM and omit the unit.

What does the record list as TGI for CC1=C(SCCC(=O)OC(C[Se]C2=C(C)C(=O)c3ccccc3C2=O)C(=O)NCCCCCC(=O)OCc2ccccc2)C(=O)c2ccccc2C1=O (stereo unspecified) ?
16.7

What does the record list as TGI for CC1CC/C(=C\c2ccc(F)cc2)C(=O)/C1=C/c1ccc(F)cc1 (stereo unspecified) ?
9.9

What does the record list as TGI for "O=C(CSc1nc(-c2ccccc2)c(-c2ccccc2)[nH]1)N/N=C/c1ccc(O)cc1" ?
66.7

What does the record list as TGI for OC(COC(c1ccccc1)(c1ccccc1)c1ccccc1)C(O)CC1SCCS1 (stereo unspecified) ?
45.2

What does the record list as TGI for "CC(C)=CCc1[nH]c2ccccc2c1C1=C(O)C(=O)C(c2c(CC=C(C)C)[nH]c3ccccc23)=C(O)C1=O" ?
4.79

What does the record list as TGI for Nc1ccc(C2=CC(c3ccc(Cl)cc3)N3C=CSC3=N2)cc1 (stereo unspecified) ?
26.9

What does the record list as TGI for "O=C1C(Cl)=C(N(C(=O)c2ccccc2)C(=O)c2ccccc2)C(=O)c2ccccc21" ?
61.3

What does the record list as TGI for "CCN(CC)CCN1C(=O)c2c(c3c4ccccc4[nH]c3c3ccc4ccccc4c23)C1=O" ?
3.22

What does the record list as TGI for "Cc1ccc(/C=N/Nc2nc(Nc3ccccc3)nc(-n3nc(C)cc3C)n2)cc1" ?
92.4

What does the record list as TGI for "O=C(Nc1ccccc1)Nc1ccc2cc3ccc(NC(=O)Nc4ccccc4)cc3nc2c1" ?
2.72

What does the record list as TGI for "COc1ccc(C/C(=C(\C)c2ccc(OCCN3CCCC3)cc2)c2ccc(OCCN3CCCC3)cc2)cc1" ?
3.2

----------
Tested on: SF-539 CNS
Assay: NCI tumour cell line growth inhibition, 48 h
Quantity measured: TGI (µM)
Write down the numeric answer in µM and omit the unit.

What does the record list as TGI for "COC(=O)N/N=C(\C)c1c(O)cc(C)oc1=O" ?
58

What does the record list as TGI for "COc1cc(/C=C/C(=O)/C=C/c2ccc(-n3ccnc3C)cc2)ccc1O" ?
5.53

----------
I'd appreciate it if you could supply TGI values for the items below.
Test system: KM20L2 colon
Assay: NCI tumour cell line growth inhibition, 48 h

What does the record list as TGI for "NC(=O)c1ccccc1[N+](=O)[O-]" ?
> 100 µM

What does the record list as TGI for "NC1=NS(=O)(=O)Nc2nc(-c3ccccc3)[nH]c21" ?
> 100 µM

What does the record list as TGI for "O=C([CH-]C(=O)c1ccccc1)c1ccccc1.[CH-]1CCCCC1.[CH-]1CCCCC1.[CH-]1CCCCC1.[Sn+4]" ?
26.3 µM

What does the record list as TGI for "Cc1cc2c(C)n(Cc3ccccc3Cl)nc2c(C(=O)O)c1C" ?
> 100 µM

What does the record list as TGI for COc1c2c(c3ccccc3c1O)C1C=CC2C1 (stereo unspecified) ?
45.7 µM

What does the record list as TGI for CCOC(=O)Oc1cc2c(c(OC)c1OC)-c1ccc(OC)c(=O)cc1C(NC(C)=O)CC2 (stereo unspecified) ?
0.0866 µM

What does the record list as TGI for "CN(c1ccc(C(=O)c2ccc(N(C)S(C)(=O)=O)cc2)cc1)S(C)(=O)=O" ?
> 100 µM

What does the record list as TGI for ClC/C=C/COC1CCCCO1 (stereo unspecified) ?
> 100 µM

What does the record list as TGI for "CCc1cccc(C)c1NC(=O)C(=O)CC(=O)c1ccc(Cl)s1" ?
> 100 µM

What does the record list as TGI for "O=c1[nH]c2ccccc2nc1/C=C(\O)c1ccccc1O" ?
> 100 µM

What does the record list as TGI for "CC(=O)[O-].Cn1ccnc1CNCc1nccn1C.[Cu+2].[O-][Cl+3]([O-])([O-])[O-]" ?
> 100 µM

----------
Tested on: SK-MEL-5 melanoma
Experiment: NCI tumour cell line growth inhibition, 48 h
Quantity measured: log10(TGI) (log10 of the value in µM)
log10 TGI, µM

What does the record list as log10(TGI) for "COc1ccc(CN2c3ccccc3Sc3ccccc32)c(C(F)(F)F)c1" ?
1.20

What does the record list as log10(TGI) for COC(=O)c1ccc(C)cc1CC1Cc2ccc(C)cc2C1=O (stereo not given) ?
1.29

What does the record list as log10(TGI) for "COc1ccc(-c2nc(-c3ccc(C)cc3)cn3ccnc23)cc1" ?
0.72

What does the record list as log10(TGI) for "O=C(Nc1cccc(O)c1)c1ccc(NC2=C(Cl)C(=O)N(Cc3ccc(Cl)cc3Cl)C2=O)cc1" ?
0.99

What does the record list as log10(TGI) for CC1=C(SCCC(=O)OC(C[Se]C2=C(C)C(=O)c3ccccc3C2=O)C(=O)NCCCCCC(=O)OCc2ccccc2)C(=O)c2ccccc2C1=O (stereo not given) ?
1.17

What does the record list as log10(TGI) for "COc1cccc(CC(C)=C(c2ccc(OCCN3CCCCC3)cc2)c2ccc(OCCN3CCCCC3)cc2)c1" ?
0.62

What does the record list as log10(TGI) for "CNC(=O)c1c(NC(=O)c2ccc(C(C)(C)C)cc2)sc2c1CCC(=O)C2" ?
0.12

What does the record list as log10(TGI) for COC(=O)C1Cc2c(n(C)c3ccccc23)C(CCC(=O)O)N1Cc1ccccc1 (stereo not given) ?
1.90

What does the record list as log10(TGI) for "CC(C)(C)c1cc(OCc2nn3c(Cc4ccccc4)nnc3s2)c(Cl)cc1OCc1nn2c(Cc3ccccc3)nnc2s1" ?
1.42

What does the record list as log10(TGI) for "COc1ccc(/C(COc2ccc3oc(-c4ccccc4)cc(=O)c3c2)=N\O)cc1" ?
0.90

----------
System: HS 578T breast
Assay: NCI tumour cell line growth inhibition, 48 h
I'd appreciate it if you could supply GI50 values for the items below.

What does the record list as GI50 for "COc1ccc(-c2nc(-c3ccc(C)cc3)cn3ccnc23)cc1" ?
20.4 µM

What does the record list as GI50 for "CCCCCCCCCCCCCCCCCCn1cc[n+](C)c1" ?
0.335 µM

What does the record list as GI50 for "NCCCC[C@@H]1NC(=O)[C@H](CC(=O)O)NC(=O)CNC(=O)[C@H](CCCN=C(N)N)NC(=O)[C@@H](N)CSSC[C@@H](C(=O)O)NC(=O)[C@H](CC(=O)O)NC(=O)[C@@H]2CCCN2C(=O)CNC1=O" ?
> 100 µM

What does the record list as GI50 for Nc1ccc(C2=CC(c3ccc(Cl)cc3)N3C=CSC3=N2)cc1 (centres undefined) ?
23.5 µM

What does the record list as GI50 for "COc1cc(/C=N/Nc2ncnc3c2cnn3-c2ccccc2)ccc1O" ?
2.18 µM

What does the record list as GI50 for CC(N)(Cc1c[nH]c2cccc(F)c12)C(=O)O (centres undefined) ?
786 µM

What does the record list as GI50 for "COc1cc(Nc2ncc(-c3ccccc3)o2)cc(OC)c1" ?
1.39 µM

What does the record list as GI50 for "Cc1cccc2nc3ccccc3c(Nc3ccc(NS(C)(=O)=O)cc3)c12" ?
8.88 µM

What does the record list as GI50 for "COc1cc(OC)cc(-c2n/c(=C\c3c(O)[nH]c4ccc(OC)cc34)cc3c2=Nc2ccccc2-3)c1" ?
16.1 µM

----------
Test system: SF-539 CNS
Assay: NCI tumour cell line growth inhibition, 48 h; in the data active means GI50 below about 0.43 µM; inactive means the rest
Just give me one of these, please: 1 (yes) (active), 0 (no) (inactive)

Kindly provide the recorded test outcome for the following molecule: "C[C@]12CC[C@H]3[C@@H](CC=C4C[C@@H](N5CCCC5)CC[C@@]43C)[C@@H]1C/C(=C\c1cccc(OCCN3CCOCC3)c1)[C@@H]2O"
0 (no)

Kindly provide the recorded test outcome for the following molecule: CC(N)(Cc1c[nH]c2cccc(F)c12)C(=O)O (stereo not given)
0 (no)

Kindly provide the recorded test outcome for the following molecule: "COc1ccc2c(c1)[nH]c(=O)c1c3cccc(F)c3cn21"
1 (yes)

Kindly provide the recorded test outcome for the following molecule: "COc1ccc(C/C(=C(\C)c2ccc(OCCN3CCCC3)cc2)c2ccc(OCCN3CCCC3)cc2)cc1"
0 (no)

Kindly provide the recorded test outcome for the following molecule: "COC(=O)c1ccc(CN2C(=O)C(Cl)=C(Nc3cccc(Cl)c3C)C2=O)cc1"
0 (no)

----------
System: EKVX NSCLC
Assay: NCI tumour cell line growth inhibition, 48 h; in the data active = GI50 below about 0.43 µM; inactive = the rest
Just give me one of these, please: active, inactive

Kindly provide the recorded test outcome for the following molecule: "COc1cc(/C=C/C(=O)/C=C/c2ccc(-n3ccnc3C)cc2)ccc1O"
inactive

Kindly provide the recorded test outcome for the following molecule: Nc1nc([Se])c2ncn(C3OC(CO)C(O)C3O)c2n1 (stereo unspecified)
inactive

Kindly provide the recorded test outcome for the following molecule: "COc1cc(Nc2ncc(-c3ccccc3)o2)cc(OC)c1"
inactive

Kindly provide the recorded test outcome for the following molecule: "CNC(=O)c1c(NC(=O)c2ccc(C(C)(C)C)cc2)sc2c1CCC(=O)C2"
active

Kindly provide the recorded test outcome for the following molecule: "CCN(CC)CCCNc1cc(OC)cc2nc3cc(Cl)ccc3nc12"
inactive

Kindly provide the recorded test outcome for the following molecule: CC1C(C)N(C(=O)CCl)c2ccccc2N1C(=O)CCl (stereo unspecified)
inactive
